assayed-system: δ-site
setup-conditions: guinea-pig brain homogenates, 150 minutes at 0° C.; mean ±SEM; read-out: KI, [3H]-[DAla2,D-Leu5]enkephalin (δ-site)
pKi: −log10 of the molar value. Peptide text beside a SMILES is read from it.
Each record here notes measured pKi.
experimental-endpoint: pKi

- CSCC[C@H](NC(=O)[C@H](Cc1ccccc1)NC(=O)CNC(=O)CNC(=O)[C@@H](N)Cc1ccc(O)cc1)C(=O)N[C@@H](CCCNC(=N)N)C(=O)N[C@@H](CCCNC(=N)N)C(=O)N[C@H](C(=O)NCC(=O)O)C(C)C [E] (H-YGGFMRRVG-OH; N-terminus and C-terminus assumed): 8.07
- CSCC[C@H](NC(=O)[C@H](Cc1ccccc1)NC(=O)CNC(=O)CNC(=O)[C@@H](N)Cc1ccc(O)cc1)C(=O)N[C@@H](CCCNC(=N)N)C(=O)N[C@@H](CCCNC(=N)N)C(=O)N[C@H](C(N)=O)C(C)C: 8.58
- CSCC[C@H](NC(=O)[C@H](Cc1ccccc1)NC(=O)CNC(=O)CNC(=O)[C@@H](N)Cc1ccc(O)cc1)C(=O)O [A, [Met^5]enkephalin]: 9.04
